molecular target: GST-tagged recombinant human TYRO3 kinase domain (Homo sapiens (Human)); assay: TYRO3 Enzyme Assay (LanthaScreen Eu Kinase Binding, TR-FRET); conditions: averaged IC50
Sequence (Q06418 518-790): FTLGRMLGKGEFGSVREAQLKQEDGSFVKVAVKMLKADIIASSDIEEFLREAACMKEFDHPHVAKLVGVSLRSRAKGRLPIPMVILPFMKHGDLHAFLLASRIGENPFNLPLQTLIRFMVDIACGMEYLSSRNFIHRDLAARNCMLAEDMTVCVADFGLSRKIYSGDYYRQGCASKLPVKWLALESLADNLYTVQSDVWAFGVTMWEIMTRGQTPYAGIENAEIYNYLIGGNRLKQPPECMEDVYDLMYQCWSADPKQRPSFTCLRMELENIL
Counter-ions that a name gives are not always drawn.
Readout Type: IC50

1) CCNc1cc2c(cn1)c(N1CCC[C@H](NC)C1)nn2[C@H]1CC[C@@H](Oc2nccc(C(F)(F)F)c2F)CC1 = 10 to 100 nM
2) CCNc1cc2c(cn1)c(-c1cnn(C[C@H](O)C(C)(C)O)c1)nn2[C@H]1CC[C@@H](Oc2cccc(F)c2F)CC1 = < 10 nM
3) Cn1cc(-c2nn([C@H]3CC[C@@H](Oc4ccc(=O)n(C)n4)CC3)c3cc(N)ncc23)cn1 = 1000 to 10000 nM
4) CCNc1cc2c(cn1)c(-c1cnn(CC(C)(C)CO)c1)nn2[C@H]1CC[C@@H](Oc2nccc(C(F)(F)F)c2F)CC1 [Example 271, hydrochloride] = 10 to 100 nM
5) CNc1cc2c(cn1)c(-c1cnn(C)c1)nn2[C@H]1CC[C@@H](Oc2ccc(=O)n(CCN(C)C)n2)CC1 = 1000 to 10000 nM
6) CCNc1cc2c(cn1)c(-c1cnn(C[C@@H](O)CO)c1)nn2[C@H]1CC[C@@H](Oc2cn(C)nc2C(F)(F)F)CC1 = < 10 nM

Alright, here's another molecule for you.
Note down IC50 recorded for CCNc1cc2c(cn1)c(-c1cnn(C)c1)nn2[C@H]1CC[C@@H](Oc2cnn(C)c2C)CC1
1000 to 10000 nM

----------
Biological target: GST-tagged recombinant human TYRO3 kinase domain (Homo sapiens (Human))
Assay: TYRO3 Enzyme Assay (LanthaScreen Eu Kinase Binding, TR-FRET)
Conditions: averaged IC50
Procedure: Compounds of Formula I were screened for their ability to inhibit TYRO3 kinase using Invitrogen's LanthaScreen™ Eu Kinase Binding technology. […] After a 60-minute incubation at 22° C., the reaction was measured using a PerkinElmer EnVision multimode plate reader via TR-FRET dual wavelength detection, and the percent of control (POC) calculated using a ratiometric emission factor. […] The POC values were fit to a 4 parameter logistic curve and the IC50 value is point where the curve crosses 50 POC.
Readout Type: IC50

In the examples that follow, each entry is paired with its recorded IC50.
1. CNc1cc2c(cn1)c(-c1cnn(C)c1)nn2[C@H]1CC[C@@H](Oc2cc(Cl)cnc2C#N)CC1 [Example 175] = 10 to 100 nM
2. CCNc1cc2c(cn1)c(-c1cnn(C(CO)CO)c1)nn2[C@H]1CC[C@@H](Oc2cccnc2C(F)(F)F)CC1 [Example 207] = < 10 nM
3. CNc1cc2c(cn1)c(-c1cnn(C)c1)nn2[C@H]1CC[C@@H](Oc2ccccc2)[C@H](O)C1 [Example 471B] = 10 to 100 nM
4. CCNc1cc2c(cn1)c(-c1cnn(C[C@@H](O)CO)c1)nn2[C@H]1CC[C@@H](Oc2cccc(Cl)c2F)CC1 [Example 434] = < 10 nM
5. CNc1cc2c(cn1)c(-c1cnn(C)c1)nn2[C@H]1CC[C@@H](Oc2cccnc2C#N)CC1 [Example 140] = < 10 nM

Note down IC50 recorded for CCNc1cc2c(cn1)c(-c1cnn(C)c1)nn2[C@H]1CC[C@@H](Oc2cccnc2C#N)CC1 [Example 188]
< 10 nM

Note down IC50 recorded for CNc1cc2c(cn1)c(-c1cnn(C)c1)nn2[C@H]1CC[C@@H](Oc2nccnc2C(F)(F)F)CC1 [Example 171]
< 10 nM
